test: protein stability index of a GFP-peptide fusion (GPS, HEK-293T) (PSI 1-6); higher = more stable; conditions: treatment: MLN4924 1 uM, 8 h; c terminus: a fixed tail appended;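 note: 24-mer peptide tiles fused after GFP, lentivirally expressed, FACS-sorted into six equal bins by GFP/DsRed ratio, decoded by Illumina sequencing, PSI is the read-weighted mean bin number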
PROPERTY MEASURED: protein stability index

MONOMER SEQUENCE	ASSAY RESULT
SLLAGTADGSLRMDDPKGDFITLY [M1AP]	2.44
RALHWAAYMGHLDVVALLINHGAE [ANKRD44]	3.12
LLTLPRPPLSGALASITETIQVHR [HDAC6]	3.22
QNEEYLLTYINEDRISTTFRLTTL [PLK2]	2.29
RDFRPTDQEEIKTLERYMCSRFFI [TENT5C]	2.71
EPDANFPQFLHEGLSKPVYVINWF [FAM104B]	2.48
PAFTVWCGSFQVTTGLQVPSAVRC [FSD1]	2.56

---

test: protein stability index of a GFP-peptide fusion (GPS, HEK-293T) (PSI 1-6); higher = more stable; settings: treatment: MLN4924 1 uM, 8 h; c terminus: a fixed tail appended
Each entry below lists one item and its recorded protein stability index value.
PROPERTY MEASURED: protein stability index

MONOMER SEQUENCE	PROPERTY MEASURED	ASSAY RESULT
SELPPPMERTGGIGDSRPPSFHPH [DVL3]	protein stability index	4.61
HRAHHKFSETHADPHNSRRGFFFS [SCD]	protein stability index	3.05
LDAVQVLSGVSQLLPKSRENYLNR [FCHO1]	protein stability index	3.25
TACAVIILTIICYLGLPRLEFYRY [SLC29A1]	protein stability index	3.1
LRENVPRVIMIVTDGRPQDSVAEV [MATN2]	protein stability index	3.09
ENQRLFEMLGRKCLTLATAVVQLY [WAS]	protein stability index	2.44
APEYFEKNEPYLEAACNDVDRWPA [DENND6A]	protein stability index	4.47
KATMQNLNDRLASYLDKVRALEEA [KRT17]	protein stability index	3.43
RSVSLSMRKSGAMKKGGIFSAEFL [BNIP3L]	protein stability index	2.95
FKISGMNGIHVCMVFEVLGHHLLK [SRPK2]	protein stability index	2.92
RTTPSRREITGVQAQPGEATSGPP [PALM]	protein stability index	5.2
ALAPKQELPSALESHEVPGTLSMG [ZNF24]	protein stability index	4.75
GNGRPGRPSQYRPDGLRSGDGVPP [LCOR]	protein stability index	4.79
QFEANGYFFKRPYPFVLFYSKFHG [KMT2E]	protein stability index	2.91
QELIQEAKPRATWTLKLDGNLQLD [RTP4]	protein stability index	3.82
VPLCSCRMETPKSREITTLANNQC [EHMT1]	protein stability index	2.81
EELQNKILTATVDNANILLQIDNA [KRT17]	protein stability index	4.3
NMLFQQNKDGIGEICLWGRHIFMG [ACSBG2]	protein stability index	2.3
FLLQNDANPSIRDKEGYNSIHYAA [ANKRD44]	protein stability index	2.85
SDLFDLMGSSQATMTSSQSMNFSM [CLINT1]	protein stability index	2.66
NRRGGPPFAFVEFEDPRDAEDAVY [SRSF1]	protein stability index	4.21
NTQTPVQPPPPPPPPPMQPTVPSA [CCDC6]	protein stability index	5
EKAMAEWVKQQAEREAEKEQKRLE [SDE2]	protein stability index	5.57
MAMPNGFHEDGPQGPGGDEDDDEE [PSD2]	protein stability index	5.47
IENIQRVAAGVLCELAQDKEAAEA [CTNNB1]	protein stability index	5.1
RPELGAALGIYGAPYAAAAAAQSY [IRX6]	protein stability index	2.92
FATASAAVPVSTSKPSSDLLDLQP [SNAP91]	protein stability index	4.1

---

assay: protein stability index of a GFP-peptide fusion (GPS, HEK-293T) (PSI 1-6); higher = more stable; settings: treatment: MLN4924 1 uM, 8 h; c terminus: a fixed tail appended
# if value of protein stability index reaches 3, tag 1; if it stays below, tag 0

MONOMER SEQUENCE	CAT
YQRFRQKSKASFLLLASGLVITDF [PTGFR]	0
PGPAPGSPGELEEDLLLPGACPGA [WEE1]	1
EEEDREEEDENGLPRRRGLRKKKT [NEUROD6]	1
FGGGCDLTPTYLNQEDAIHFHRTL [CPOX]	0
GHGYDSKKQQELTAAVLGLICEGL [ZBED1]	0
FTFLSAKCLQGNADGDGGGGQCCR [PCDHGC5]	1
NHGYAEPAAGRELPPDMTVVPGDH [KCNA3]	1
SLNPDGYEKAYEGGSELGGWSLGR [CPXM2]	1
LQAQKEELQSLMHQPKGLEEENAQ [PBXIP1]	1
PAPPSDALLDLHFPSDHLGDLGDP [TFE3]	1
KLEYEEIALDLTPVIEELTNAGFL [FAN1]	0
KKFYEAFSKNLKLGIHEDSTNRRR [HSP90AB1]	1
HQRFLREGRFWKSKNEDRGEEEAE [ZMYND11]	1
EVLREQAGGDATENFEDVGHSTDA [CYB5A]	1
SSNLSLDVLRGNDETIGFEDILND [POMP]	1
GFTPDRLSSSCCHTVPDFHLSSPA [PLK2]	1
MLRTGLGVIRMWADEGSRNSRFQM [NETO1]	0
SALGPPPAASNSSDLFDLMGSSQA [CLINT1]	1
HRSYLGPGSTSPLETSGNPNGRYG [SLC6A17]	1
QYSSHHTAEKRKRLGELFNPYYDP [CHGB]	1
QYTVPGTEGVTQLKLTVVEDVTVG [ZFYVE21]	1
SWARQESLQERKQALYEYARRRFT [AUP1]	1
KLPLQIDCLAAWEEWLLVGTKQGH [VPS39]	0
ALGPLRTPAPPLWIGLFLVATGSQ	0
WYQVRCLFQSPLFAKAGDTLSGTC [CARM1]	0
SISASSARFVSSGSGGGYGGGMRV [KRT15]	1

---

experiment: protein stability index of a GFP-peptide fusion (GPS, HEK-293T) (PSI 1-6); higher = more stable; conditions: treatment: MLN4924 1 uM, 8 h; c terminus: a fixed tail appended
Catalogue of sequences with associated protein stability index

MONOMER SEQUENCE	protein stability index
NQSVEPKKEEPEPETEAVSSSQEI [ZMYND11]	5.29
LDFSKKILHTAWHPSENIIAVAAT [PPP2R2B]	2.3
PSVYHAMPSPCSCMSFNPETRRLS [WDFY2]	2.88
RWTFEKACHPFLLGPPLVRKRIHD [TOR1AIP2]	2.76
FSLACSLMGPSRMSLFSLYMVQDQ [M1AP]	2.99
SIFGICMVFSGLCPLLLGSVMAIE [PTGFR]	3.09
GSRLCLYEDGTELTEDYFPSVPDN [DFFB]	4.66
LHTANLGDSGFLVVRGGEVVHRSD [PPTC7]	3.76
ELSNFKSQKVLGLNEDPLKWWSDR [ZBED1]	2.97
AIVGGMALGVAGLAGLIGLAVSKS [FIS1]	3.12
ATADFADVADDFENYHKLRRSSSK [NETO1]	5.2
LRPAKRELRGAEPGRPARLDQLLD [SPSB4]	4.03
LVSDDPRCRLSLDDRVLSSLVRDT [POP5]	3.68
QEDAPMIEPLVPEEKMETKTESSG [EPB41L3]	5.63
NGHTDVADVLLQAGADLEHESEGG [ANKRD17]	5.28
SMWTRPQIKDFKEKIQQDADSVIT [ACBD3]	4.08
IVISYIHVAAAVLRIRSVEGRKKA [OR3A1]	2.05
VGVDRAFPLKPMVHRKSCSTGEAG [ZC2HC1C]	4.2
LAQEAEAWLNYPCFKNWDGSPVSS [OAS1]	3.11
LWQFLLELLTDKSCQSFISWTGDG [ETS1]	3.13
TSLFLGNGVLLCFYSQEWYARQHC [SOAT1]	2.91
SRCRNSYTEQELKPLTLEALGHLG [DLC1]	2.99
TREGFTLLHLAVNSNTPVDDFHTN [FEM1B]	2.95
SIWAQNQVENWSAFAPDFKELDEN [RBBP5]	4.23
LSTPDSQSLRCDLIRYICGVVHPS [INTS3]	2.29
LYGTKGNYTSRVWEYSSSIQNSDN [TRIM29]	2.83
NNDCRIYVGNLPPDIRTKDIEDVF [SRSF1]	3.3
WYLKEEDHYQRVKREREKEDIALN [RHOBTB1]	3.96
YCLLSDHGCEYSCVNMDRSFACQC [MATN2]	2.95
AFHVRRTNRVKECLAKGTFSDVTF [RHOBTB2]	2.78
VNPWKREVKLLLSSETPIEGKNMS [APMAP]	3.62
PATGRSGPLPPPPPGAGGPPMPPP [WAS]	4.88
HVSPPPSADPARGLPRSRDCRVDL [PDLIM4]	4.73
VLPCIQQIQRISLNTLTLNVKSEK [FLOT1]	2.98
LSRKVAKLVHFLLLKYRAREPVTK [MAGEA6]	2.43
LRDPLTSLSHTELEAAEVILEHAH [FCHSD1]	4.44
AEEHREKLLKQMRILWKKIQENQR [TRIM43]	2.21
VIFALCWFPLHLSRILKKTVYNEM [EDNRA]	2.92
EQHAGTSEGLHLAGTAGHPPSGSQ [FBF1]	5.2
TPLHIAAQNNCPAIMNALIEAGAH [FEM1A]	3.13
SNYIFVAIFWIVFLLLIVFYTAIT [P2RY14]	2.1
HLSRLCVRHNLGDTRLGQVSALPL [SPSB2]	2.54
GSNDRVQGVISQLEDTCKTIEECC [TRIM55]	4.77
LSRAYDGTTYLPGIVGLNNIKAND [USP39]	3.54
KAFRSDSSFNFFVFFFIFFVQDVL [SCAMP3]	3.25
QDIENALSTSSSPSGTPTNLRRHV [DLC1]	4.94
VKKCLELFSELAEDKENYKKFYEA [HSP90AB1]	2.74
TATREEASTSLPTKPTQGASSASE [CLPTM1]	5.4
RFCLVPSMEGVRWAFSCGTWLPSR [AASDHPPT]	2.32
ETRQKKLEVAMEEEGLADEEKKLR [STK38L]	5.6
PDEMRMQALLIRERILGPSHPDTS [FEM1A]	3.56
CSSSTRSVLKRPERSQEESPPGST [CDC25A]	4.95
ISPSTLKNSLFPSPISSISPGLHS [KCNK9]	2.76
